Each entry below carries its recorded pIC50.
# System: JAK1 (Homo sapiens (Human), UniProt P23458)
# Sequence (P23458 875-1153): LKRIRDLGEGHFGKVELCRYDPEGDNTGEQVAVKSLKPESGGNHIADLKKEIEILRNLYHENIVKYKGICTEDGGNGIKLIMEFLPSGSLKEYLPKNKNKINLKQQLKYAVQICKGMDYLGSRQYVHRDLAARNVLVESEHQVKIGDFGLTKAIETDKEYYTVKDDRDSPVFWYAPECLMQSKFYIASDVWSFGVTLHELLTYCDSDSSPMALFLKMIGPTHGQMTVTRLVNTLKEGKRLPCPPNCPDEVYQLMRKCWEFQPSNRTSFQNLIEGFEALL
# Assay protocol: JAK Caliper Enzyme Assay at 1 mM ATP, JAK1
# Type: biochemical
pIC50: −log10 of the molar value.

# Molecule, System, Readout relation, pIC50
rows = [
    ("N#CCC1(n2ccc(-c3nc(-c4ccn[nH]4)cc4ncccc34)n2)CN(S(=O)(=O)C2CC2)C1", "JAK1 (Homo sapiens (Human), UniProt P23458)", "=", 6.35),
    ("N#CCC1(n2ncc(-c3cc(-c4cc[nH]n4)cc4ncccc34)n2)CN(S(=O)(=O)C2CC2)C1", "JAK1 (Homo sapiens (Human), UniProt P23458)", "=", 6.55),
    ("N#CC[C@]1(n2ncc(-c3cc(-c4cccc(C(=O)O)n4)cc4ncccc34)n2)C[C@H](C#N)C1", "JAK1 (Homo sapiens (Human), UniProt P23458)", "=", 5.64),
    ("N#CCC1(n2ncc(-c3cc(-c4ccc(F)cn4)cc4ncccc34)n2)CC(C#N)C1 (stereo not shown)", "JAK1 (Homo sapiens (Human), UniProt P23458)", "<", 5.00),
]

====

# System: TYK2 (Homo sapiens (Human), UniProt P29597)
# Sequence (P29597 897-1176): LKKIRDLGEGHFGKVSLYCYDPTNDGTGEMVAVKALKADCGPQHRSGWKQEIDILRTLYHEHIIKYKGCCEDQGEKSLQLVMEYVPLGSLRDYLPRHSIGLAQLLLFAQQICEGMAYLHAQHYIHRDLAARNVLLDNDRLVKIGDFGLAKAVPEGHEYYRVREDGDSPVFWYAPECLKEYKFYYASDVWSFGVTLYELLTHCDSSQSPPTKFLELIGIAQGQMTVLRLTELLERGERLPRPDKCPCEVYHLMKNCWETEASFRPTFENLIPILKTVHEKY
# Assay protocol: JAK Caliper Enzyme Assay at 1 mM ATP, TYK2
# Format: biochemical
Each entry below carries its recorded IC50.

# Compound, Units, IC50
records = [
    ("Cn1nccc1C1CC(CC#N)(n2ccc(-c3nc(-c4cn[nH]c4)cc4ncccc34)n2)C1 (stereo not drawn) [Example 86]", "nM", 430),
    ("CC(=O)N(C)C1CC(CC#N)(n2ccc(-c3nc(-c4cc[nH]n4)cc4ncccc34)n2)C1 (stereo not drawn) [Example 33]", "nM", 850),
    ("N#CC[C@]1(n2ccc(-c3nc(-c4ccc(N)nc4)cc4ncccc34)n2)C[C@H](C#N)C1 [Example 196]", "nM", 45),
    ("N#CC[C@]1(n2ncc(-c3cc(-c4ccnc(N)c4)cc4ncccc34)n2)C[C@H](C#N)C1 [Example 367]", "nM", 93),
    ("Cn1ncc(-c2cc(-c3cnn([C@]4(CC#N)C[C@@H](C#N)C4)n3)c3cccnc3c2)c1C(N)=O [Example 334]", "nM", 736),
    ("CS(=O)(=O)c1ccc(-c2cc3ncccc3c(-c3ccn([C@]4(CC#N)C[C@@H](C#N)C4)n3)n2)cn1 [Example 208]", "nM", 81),
    ("N#CCC1(n2ccc(-c3nc(-c4cn[nH]n4)cc4ncccc34)n2)CN(CC(F)(F)F)C1 [Example 153]", "nM", 239),
    ("N#CCC1(n2ccc(-c3nc(-c4cncnc4)cc4ncccc34)n2)CN(CC(F)(F)F)C1 [Example 234]", "nM", 2660),
    ("Cc1cncc(-c2cc3ncccc3c(-c3ccn(C4(CC#N)CN(CC(F)(F)F)C4)n3)n2)c1 [Example 173]", "nM", 1880),
    ("Cc1nc(-c2cc(-c3cnn([C@]4(CC#N)C[C@H](C#N)C4)n3)c3cccnc3c2)c[nH]1 [Example 336]", "nM", 8),
    ("CS(=O)(=O)N1CC(CC#N)(n2ccc(-c3nc(-c4ccc(F)cc4O)cc4ncccc34)n2)C1 [Example 259]", "nM", 19),
    ("CCn1cc(-c2cc3ncccc3c(-c3ccn(C4(CC#N)CN(CC(F)(F)F)C4)n3)n2)cn1 [Example 111]", "nM", 27),
    ("Cn1nc(CO)cc1-c1cc2ncccc2c(-c2ccn([C@]3(CC#N)C[C@@H](C#N)C3)n2)n1 [Example 60]", "nM", 190),
    ("N#CC[C@]1(n2ccc(-c3nc(-c4cccc(O)n4)cc4ncccc34)n2)C[C@@H](C#N)C1 [Example 181]", "nM", 40),
    ("Cc1cc(-c2cc(-c3cc[nH]n3)cc3ncccc23)nn1C1(CC#N)CN(S(C)(=O)=O)C1 [Example 293]", "nM", 81),
]

====

# System: JAK3 (Homo sapiens (Human))
# Assay protocol: JAK Caliper Enzyme Assay at 1 mM ATP, JAK3
# Assay type: biochemical
Each entry below carries its recorded IC50.
Measured property: IC50

# Molecule smiles, Measured property, Result
records = [
    ("N#CC[C@]1(n2ncc(-c3cc(-c4ccc(N)nc4)cc4ncccc34)n2)C[C@@H](C#N)C1", "IC50", "8.16 µM"),
    ("CN(C)c1ccc(-c2cc3ncccc3c(-c3ccn(C4(CC#N)CN(S(C)(=O)=O)C4)n3)n2)cn1", "IC50", "> 10 µM"),
    ("Cc1cc(-c2cc3ncccc3c(-c3ccn([C@]4(CC#N)C[C@@](C)(C#N)C4)n3)n2)n[nH]1", "IC50", "> 10 µM"),
    ("Cc1ncc(-c2cc3ncccc3c(-c3ccn(C4(CC#N)CN(S(C)(=O)=O)C4)n3)n2)cc1O", "IC50", "> 10 µM"),
]

====

Each entry below carries its recorded IC50.
# System: JAK3 (Homo sapiens (Human), UniProt P52333)
# Sequence (P52333 822-1111): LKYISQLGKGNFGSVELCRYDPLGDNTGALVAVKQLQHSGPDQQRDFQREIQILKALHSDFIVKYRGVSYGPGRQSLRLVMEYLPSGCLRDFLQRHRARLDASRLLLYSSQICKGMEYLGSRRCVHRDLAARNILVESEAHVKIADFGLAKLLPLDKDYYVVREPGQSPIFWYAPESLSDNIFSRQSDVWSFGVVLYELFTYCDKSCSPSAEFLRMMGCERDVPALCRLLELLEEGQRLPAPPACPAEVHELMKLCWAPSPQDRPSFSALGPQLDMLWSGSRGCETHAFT
# Assay protocol: JAK Caliper Enzyme Assay at 1 mM ATP, JAK3
# Format: biochemical
# Experimental: Compounds of the invention were evaluated by in vitro methods to determine their respective ability to inhibit the JAK kinases (TYK2, JAK1, JAK2, JAK3). The human JAK inhibitory activity was determined by using a microfluidic assay to monitor phosphorylation of a synthetic peptide by the recombinant human kinase domain of each of the four members of the JAK family, JAK1, JAK2, JAK3 and TYK2. […]

# Compound, System, IC50
measured = [
    ("N#CC[C@]1(n2ccc(-c3nc(-c4cccc(O)n4)cc4ncccc34)n2)C[C@@H](C#N)C1", "JAK3 (Homo sapiens (Human), UniProt P52333)", "> 10 µM"),
    ("Cn1cc(-c2cc(-c3ccn(C4(CC#N)CN(S(C)(=O)=O)C4)n3)c3cccnc3c2)cn1", "JAK3 (Homo sapiens (Human), UniProt P52333)", "> 10 µM"),
    ("CS(=O)(=O)Nc1ccc(-c2cc3ncccc3c(-c3ccn([C@]4(CC#N)C[C@@H](C#N)C4)n3)n2)cc1", "JAK3 (Homo sapiens (Human), UniProt P52333)", "0.454 µM"),
    ("Cn1cc(-c2cc3ncccc3c(-c3cn(C4(CC#N)CN(CC(F)(F)F)C4)nn3)n2)cn1", "JAK3 (Homo sapiens (Human), UniProt P52333)", "3.26 µM"),
    ("Cn1cc(-c2cc(-c3cnn([C@]4(CC#N)C[C@H](C#N)C4)n3)c3cccnc3c2)c(N)n1", "JAK3 (Homo sapiens (Human), UniProt P52333)", "> 10 µM"),
    ("CS(=O)(=O)c1ccc(-c2cc3ncccc3c(-c3ccn([C@]4(CC#N)C[C@@H](C#N)C4)n3)n2)cn1", "JAK3 (Homo sapiens (Human), UniProt P52333)", "> 10 µM"),
    ("CS(=O)(=O)N1CC(CC#N)(n2ccc(-c3nc(-c4cnn([C@H]5CCOC5)c4)cc4ncccc34)n2)C1", "JAK3 (Homo sapiens (Human), UniProt P52333)", "9.66 µM"),
    ("CO[C@H]1C[C@](CC#N)(n2ccc(-c3nc(-c4cc(N)[nH]n4)cc4ncccc34)n2)C1", "JAK3 (Homo sapiens (Human), UniProt P52333)", "> 10 µM"),
    ("Cn1nc(-c2cc3ncccc3c(-c3ccn([C@]4(CC#N)C[C@](C)(C#N)C4)n3)n2)cc1N", "JAK3 (Homo sapiens (Human), UniProt P52333)", "> 10 µM"),
    ("CS(=O)(=O)N1CC(CC#N)(n2ccc(-c3nc(-c4ccc(S(N)(=O)=O)nc4)cc4ncccc34)n2)C1", "JAK3 (Homo sapiens (Human), UniProt P52333)", "> 10 µM"),
    ("Cc1cc(-c2nc(-c3cn[nH]c3N)cc3ncccc23)nn1[C@]1(CC#N)C[C@@H](C#N)C1", "JAK3 (Homo sapiens (Human), UniProt P52333)", "2.65 µM"),
    ("N#CC[C@]1(n2ncc(-c3cc(-c4c[nH]nc4CO)cc4ncccc34)n2)C[C@@H](C#N)C1", "JAK3 (Homo sapiens (Human), UniProt P52333)", "9.27 µM"),
    ("CS(=O)(=O)N1CC(CC#N)(n2ccc(-c3nc(-c4cnn(CC5(O)COC5)c4)cc4ncccc34)n2)C1", "JAK3 (Homo sapiens (Human), UniProt P52333)", "> 10 µM"),
    ("N#CC[C@]1(n2ncc(-c3cc(-c4cnn(CCO)c4)cc4ncccc34)n2)C[C@H](C#N)C1", "JAK3 (Homo sapiens (Human), UniProt P52333)", "4.17 µM"),
    ("CS(=O)(=O)N1CC(CC#N)(n2ccc(-c3nc(-c4c[nH]c5ncccc45)cc4ncccc34)n2)C1", "JAK3 (Homo sapiens (Human), UniProt P52333)", "> 10 µM"),
    ("Cn1cc(-c2cc3ncccc3c(-c3ccn(C4(CC#N)CN(S(C)(=O)=O)C4)n3)n2)cn1", "JAK3 (Homo sapiens (Human), UniProt P52333)", "> 10 µM"),
    ("N#CCC1(n2ccc(-c3nc(-c4cc5n(n4)CCNC5)cc4ncccc34)n2)CC(C#N)C1 (stereo not drawn)", "JAK3 (Homo sapiens (Human), UniProt P52333)", "5.1 µM"),
    ("C[C@]1(C#N)C[C@@](CC#N)(n2ccc(-c3nc(-c4cn[nH]c4)cc4ncccc34)n2)C1", "JAK3 (Homo sapiens (Human), UniProt P52333)", "> 10 µM"),
    ("N#CCC1(n2ccc(-c3nc(-c4nc(CO)cs4)cc4ncccc34)n2)CC(C#N)C1 (stereo not drawn)", "JAK3 (Homo sapiens (Human), UniProt P52333)", "> 10 µM"),
    ("CS(=O)(=O)N1CC(CC#N)(n2ccc(-c3nc(-c4ccc(O)c(F)c4)cc4ncccc34)n2)C1", "JAK3 (Homo sapiens (Human), UniProt P52333)", "> 10 µM"),
    ("CS(=O)(=O)N1CC(CC#N)(n2ccc(-c3nc(-c4cccc(O)n4)cc4ncccc34)n2)C1", "JAK3 (Homo sapiens (Human), UniProt P52333)", "> 10 µM"),
    ("N#CC[C@]1(n2ccc(-c3nc(-c4cc5n(n4)CCNC5)cc4ncccc34)n2)C[C@H](C#N)C1", "JAK3 (Homo sapiens (Human), UniProt P52333)", "> 10 µM"),
    ("Cn1cc(-c2cc(-c3cnn(C4(CC#N)CC(C#N)C4)n3)c3cccnc3c2)c(CO)n1 (stereo not drawn)", "JAK3 (Homo sapiens (Human), UniProt P52333)", "> 10 µM"),
    ("CS(=O)(=O)c1ccc(-c2cc3ncccc3c(-c3ccn(C4(CC#N)CC(C#N)C4)n3)n2)cn1 (stereo not drawn)", "JAK3 (Homo sapiens (Human), UniProt P52333)", "9.27 µM"),
    ("CCN1CC(CC#N)(n2ccc(-c3nc(-c4cc(N)n(C)n4)cc4ncccc34)n2)C1", "JAK3 (Homo sapiens (Human), UniProt P52333)", "> 10 µM"),
    ("CO[C@H]1C[C@@](CC#N)(n2cc(-c3nc(-c4cnn(CCO)c4)cc4ncccc34)cn2)C1", "JAK3 (Homo sapiens (Human), UniProt P52333)", "> 10 µM"),
    ("N#CC[C@]1(n2ccc(-c3nc(-c4c[nH]nc4N)cc4ncccc34)n2)C[C@@H](C#N)C1", "JAK3 (Homo sapiens (Human), UniProt P52333)", "0.735 µM"),
    ("N#CCC1(n2ccc(-c3nc(-c4cnc5cc[nH]c5c4)cc4ncccc34)n2)CN(CC(F)(F)F)C1", "JAK3 (Homo sapiens (Human), UniProt P52333)", "> 10 µM"),
    ("Cn1cc(-c2cc3ncccc3c(-c3ccn(C4(CC#N)CN(CC5CC5)C4)n3)n2)cn1", "JAK3 (Homo sapiens (Human), UniProt P52333)", "> 10 µM"),
    ("Cc1cc(-c2cc3ncccc3c(-c3ccn([C@]4(CC#N)C[C@@H](C#N)C4)n3)n2)cc(N)n1", "JAK3 (Homo sapiens (Human), UniProt P52333)", "> 10 µM"),
]
